- Procedure Summary: protein stability index of a GFP-peptide fusion (GPS, HEK-293T) (PSI 1-6); higher = more stable;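 note: 24-mer peptide tiles fused after GFP, lentivirally expressed, FACS-sorted into six equal bins by GFP/DsRed ratio, decoded by Illumina sequencing, PSI is the read-weighted mean bin number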
- Test Conditions: treatment: DMSO; c terminus: a fixed tail appended
Exercise: state measured protein stability index for each of the sequences provided.
One number for each entry.

Worked cases, answers included:
WHDVQVSSAYVKTSEKLGEWNEKV [TPD52L2] | 3.64
ETELALVKESGERKVTDSISKSLE [DLC1] | 5.56
RKDLAKLHREVRSTPLTATPGGRG [VTI1B] | 4.38
EEGILVAVGQDCYTRIWSLHDARL [DCAF4] | 2.26
MLLQHQICKEVQAEQEPTRKLFEV [SPAG8] | 2.79

Parameter requested: protein stability index. Apply to each item below.
1. SQVSWEQDLKLFLQEPGVFSPTPP [FCHSD1]
2. KKTWKILTIMPYNSAHHCVVEVEN [KLHL14]
3. TISFLGCAIQMFSFLFLGCSHSFL [OR10K2]
4. ASKWGMSYDELCFLEQRPQSPTLE [EDARADD]
5. AHAGAVHNGKIYISGGVHNGEYVP [KLHL14]
6. EVKIRDWHLKQSPASPERDYSPYY [KRT13]
7. RLFTVNDVKVGGSKYGIINLQSLK [DCAF4]

OUTPUT:
[3.36, 2.27, 3.14, 3.67, 3.03, 3.34, 2.14]

Hey, quick one: what's protein stability index for each of these?
1. DLKPENIMLLDKNVPNPRIKLIDF [DAPK3]
2. KRYAGREEHWVGLKKEPGHPWKWS [CD69]
3. AGTAGHPPSGSQPLTSTQGLEHAA [FBF1]
4. RRTPPGQQRPHPRSHSREPRAERK [ELOA2]
5. VIVWDGDTTRQVQRISCFQSTVKC [WDR41]
6. DRTAIRSDTTHLVTLGGVLRQQLV [KLHL13]

OUTPUT:
[2.79, 2.76, 4.84, 5.33, 2.31, 2.61]

Working through the 7 sequences below one at a time, give protein stability index for each.
1. RAPSERSGPAASEHSHRSHHSLAS [DVL3]
2. CRDLVDEAKNYLLLPQERPLMQGP [KLHL20]
3. VRCGLLGSLGPVPVLRFDALWQVL [TRIM14]
4. VDLSRILNEMRDQYEKMAEKNRKD [KRT17]
5. KDGVADSTVISSMPCLLMELRRDS [C18orf25]
6. AEFQSLFSLLEELKEGMLMKIKQD [FSD1]
7. CTAKCGERSVVTRDIRCSEDEKLC [ADAMTSL2]

OUTPUT:
1. 4.68
2. 2.65
3. 2.29
4. 3.52
5. 3.25
6. 2.21
7. 4.63

Batch request: protein stability index per item, same order as input.
1. ATKFKQLYRSRMNSLEMTPAVRQR [HMOX1]
2. IDPETKKHIPYREHKSLTGTARYM [CSNK1G3]

OUTPUT:
1: 3.32; 2: 3.38
